// provenance: patent US4272437A

Notes on MIC obtained with K. pneumoniae A-15130.

Example cases with answers are listed next.
# compound, val
measured = [
    ("CC1=C(C(=O)O)N2C(=O)[C@H](C(C)(C)O)[C@H]2S1 (relative stereo) [Example 32]", "125 µg/mL"),
    ("O=C(O)C1=CSC2CC(=O)N12 (centres unmarked) [Example 19, Penem-3-carboxylic Acid]", "16 µg/mL"),
    ("CC1=C(C(=O)O)N2C(=O)[C@H]([C@H](C)O)[C@H]2S1 (relative stereo) [Example 59]", "> 125 µg/mL"),
    ("NC1CCC(C2=C(C(=O)O)N3C(=O)C[C@H]3S2)C1 (single isomer, unassigned) [98 isomer A]", "4 µg/mL"),
    ("O=C([O-])C1=C(Cc2ccccc2)S[C@@H]2CC(=O)N12.[Na+] [Preparation 21, Sodium 2-Benzylpenem-3-carboxylate]", "125 µg/mL"),
]

Can you give me MIC for all of these, one by one?
1. O=C(O)C1=C(COc2ccccc2)S[C@@H]2CC(=O)N12 [Preparation 12, 2-Phenoxymethylpenem-3-carboxylic Acid]
2. NCC1CC1C1=C(C(=O)O)N2C(=O)CC2S1 (centres unmarked) [Example 79]
3. CC1=C(C(=O)O)N2C(=O)[C@H]([C@H]3COC(C)(C)O3)[C@H]2S1 (relative stereo) [Example 104]
4. Cc1cc(C)n(CC2=C(C(=O)O)N3C(=O)CC3S2)n1 (centres unmarked) [Example 77]
5. CCCC(N)C1=C(C(=O)O)N2C(=O)CC2S1 (centres unmarked) [Example 82]
6. O=C([O-])C1=C(c2ccccc2)S[C@@H]2CC(=O)N12.[Na+] [Preparation 7, Sodium 2-Phenylpenem-3-carboxylate]
7. CC1=C(C(=O)O)N2C(=O)[C@H]([C@@H](C)O)[C@H]2S1 (relative stereo) [Example 60]
8. CC(=O)NCCC1=C(C(=O)O)N2C(=O)CC2S1 (centres unmarked) [Example 25]

1: > 125 µg/mL; 2: 16 µg/mL; 3: > 63 µg/mL; 4: > 125 µg/mL; 5: 32 µg/mL; 6: 63 µg/mL; 7: 16 µg/mL; 8: 16 µg/mL

What MIC value was documented for this compound, CC1(CC2=C(C(=O)O)N3C(=O)CC3S2)OCCO1 (centres unmarked) [Preparation 22] ?
32 µg/mL

###

test system: Pr. morganii A-15153; experiment: MIC, tube dilution, Proteus morganii A15153; assay type: cell-based; settings: Morganella morganii, A15153, Proteus morganii A15153; overnight 37° C.; read-out: Minimum Inhibitory Concentration (M.I.C.)
parameter: MIC (µg/mL)
Numbers only, in µg/mL.

Example cases with answers are listed next.
# compound, parameter, val
rows = [
    ("NCC1CC1C1=C(C(=O)O)N2C(=O)CC2S1 (stereo not drawn)", "MIC", 16),
    ("CSC(SC)C1=C(C(=O)O)N2C(=O)CC2S1 (stereo not drawn)", "MIC", 63),
    ("NCC[S+]([O-])CC1=C(C(=O)O)N2C(=O)C[C@H]2S1 (stereo partly drawn)", "MIC", 16),
    ("CC1=C(C(=O)O)N2C(=O)C(C(O)c3ccccc3)C2S1 (stereo not drawn)", "MIC", 125),
    ("Cc1cc(C)n(CC2=C(C(=O)O)N3C(=O)CC3S2)n1 (stereo not drawn)", "MIC", 16),
    ("CCCCCC1=C(C(=O)[O-])N2C(=O)C[C@H]2S1.[K+] [Preparation 16, Potassium 2-Pentylpenem-3-carboxylate]", "MIC", 16),
    ("O=C(O)C1=C(CCCCN2C(=O)c3ccccc3C2=O)SC2CC(=O)N12 (stereo not drawn)", "MIC", 32),
    ("CCC1=C(C(=O)O)N2C(=O)C[C@H]2S1", "MIC", 8),
    ("NCCSCC1=C(C(=O)O)N2C(=O)CC2S1 (stereo not drawn)", "MIC", 8),
    ("CCCC1=C(C(=O)O)N2C(=O)C[C@H]2S1", "MIC", 63),
]

Can you give me MIC for all of these, one by one?
1. CC1(C)OCC(C(N)C2=C(C(=O)O)N3C(=O)CC3S2)O1 (stereo not drawn)
2. CC(N)=NCC1=C(C(=O)O)N2C(=O)CC2S1 (stereo not drawn)
3. O=C(O)C1=CSC2CC(=O)N12 (stereo not drawn)
4. CC1(CC2=C(C(=O)O)N3C(=O)CC3S2)OCCO1 (stereo not drawn)
5. NC1CC1C1=C(C(=O)O)N2C(=O)CC2S1 (stereo not drawn)
6. CC1=C(C(=O)O)N2C(=O)C(C(C)(C)O)C2S1 (stereo not drawn)
7. N#CCCC(N)C1=C(C(=O)O)N2C(=O)C[C@H]2S1 (stereo partly drawn)

16
16
16
8
16
125
4

Can you give me MIC for all of these, one by one?
1. CSCC1=C(C(=O)O)N2C(=O)C[C@H]2S1
2. NCC(=O)OCC1=C(C(=O)O)N2C(=O)CC2S1 (stereo not drawn)
3. NCc1ccc(CC2=C(C(=O)O)N3C(=O)CC3S2)cc1 (stereo not drawn)
4. N=C(Cc1ccccc1)NCC1=C(C(=O)O)N2C(=O)CC2S1 (stereo not drawn)

4
8
4
63

Can you give me MIC for all of these, one by one?
1. N[C@H]1C[C@@H](C2=C(C(=O)O)N3C(=O)C[C@H]3S2)C1
2. CC1=C(C(=O)O)N2C(=O)[C@H]([C@@H](C)O)[C@H]2S1 (relative stereo)
3. C[C@@H](O)[C@H]1C(=O)N2C(C(=O)O)=C(CN)S[C@H]12 (relative stereo)
4. O=C([O-])C1=C(c2cccnc2)S[C@@H]2CC(=O)N12.[Na+] [Example 53, Sodium 2-(3-Pyridyl)penem-3-carboxylate]
5. CC1=C(C(=O)O)N2C(=O)[C@@H]([C@H](C)O)[C@H]2S1 (relative stereo)

8
32
2
8
8

Can you give me MIC for all of these, one by one?
1. O=C(O)C1=C(COc2ccccc2)S[C@@H]2CC(=O)N12
2. CCCC(N)C1=C(C(=O)O)N2C(=O)CC2S1 (stereo not drawn)
3. Nc1ccccc1CC1=C(C(=O)O)N2C(=O)CC2S1 (stereo not drawn)

1. 16
2. 16
3. 125
